The reported numbers originate from ChEMBL document CHEMBL1149947.

Molecular target: Substance-K receptor (Homo sapiens, UniProt P21452)
Sequence (P21452 whole entry): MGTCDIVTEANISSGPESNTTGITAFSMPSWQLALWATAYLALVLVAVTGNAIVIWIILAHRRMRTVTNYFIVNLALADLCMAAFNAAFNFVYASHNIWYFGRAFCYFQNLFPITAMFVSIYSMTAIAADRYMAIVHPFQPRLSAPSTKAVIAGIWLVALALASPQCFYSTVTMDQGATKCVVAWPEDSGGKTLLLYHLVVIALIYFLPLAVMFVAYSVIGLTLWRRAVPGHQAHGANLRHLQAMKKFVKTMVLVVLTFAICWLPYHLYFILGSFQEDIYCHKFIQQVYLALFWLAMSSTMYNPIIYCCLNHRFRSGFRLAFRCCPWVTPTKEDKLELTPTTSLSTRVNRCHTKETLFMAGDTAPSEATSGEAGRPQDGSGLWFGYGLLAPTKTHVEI
Assay: Binding affinity against human NK2 receptors from HSKR-1 cells using [125I]-Iodohistidyl NKA
Readout Kind: IC50 (nM)
API: value field is a number in nM; no unit string.

Guide cases for IC50, answers given:
>  <Molecule>
COc1cc(C(=O)N2CCC(CCN3CCC(C(N)=O)(c4ccccc4)CC3)(c3ccc(Cl)c(Cl)c3)C2)cc(OC)c1C (centres undefined)

>  <Assayed System>
Substance-K receptor (Homo sapiens, UniProt P21452)

>  <IC50 / nM>
13.4

$$$$
>  <Molecule>
CC(=O)NC1(c2ccccc2)CCN(CC[C@H](CN(C)C(=O)c2ccccc2)c2ccc(Cl)c(Cl)c2)CC1

>  <Assayed System>
Substance-K receptor (Homo sapiens, UniProt P21452)

>  <IC50 / nM>
0.44

$$$$

Query: Give the measured IC50 of COc1c(Br)cc(C(=O)N2CCC(CCN3CCC(C(N)=O)(c4ccccc4)CC3)(c3ccc(Cl)c(Cl)c3)C2)cc1Br (centres undefined) .
Result: 4.04

Query: Next record, please: CCOC(=O)Oc1c(OC)cc(C(=O)N2CCC(CCN3CCC(C(N)=O)(c4ccccc4)CC3)(c3ccc(Cl)c(Cl)c3)C2)cc1OC (centres undefined)
Result: 96.3
